# target_of_assay: CSF-1R (Homo sapiens)
# Construct: purchased Invitrogen PV3249 (lot 662393N)
# Sequence (P07333 20-972): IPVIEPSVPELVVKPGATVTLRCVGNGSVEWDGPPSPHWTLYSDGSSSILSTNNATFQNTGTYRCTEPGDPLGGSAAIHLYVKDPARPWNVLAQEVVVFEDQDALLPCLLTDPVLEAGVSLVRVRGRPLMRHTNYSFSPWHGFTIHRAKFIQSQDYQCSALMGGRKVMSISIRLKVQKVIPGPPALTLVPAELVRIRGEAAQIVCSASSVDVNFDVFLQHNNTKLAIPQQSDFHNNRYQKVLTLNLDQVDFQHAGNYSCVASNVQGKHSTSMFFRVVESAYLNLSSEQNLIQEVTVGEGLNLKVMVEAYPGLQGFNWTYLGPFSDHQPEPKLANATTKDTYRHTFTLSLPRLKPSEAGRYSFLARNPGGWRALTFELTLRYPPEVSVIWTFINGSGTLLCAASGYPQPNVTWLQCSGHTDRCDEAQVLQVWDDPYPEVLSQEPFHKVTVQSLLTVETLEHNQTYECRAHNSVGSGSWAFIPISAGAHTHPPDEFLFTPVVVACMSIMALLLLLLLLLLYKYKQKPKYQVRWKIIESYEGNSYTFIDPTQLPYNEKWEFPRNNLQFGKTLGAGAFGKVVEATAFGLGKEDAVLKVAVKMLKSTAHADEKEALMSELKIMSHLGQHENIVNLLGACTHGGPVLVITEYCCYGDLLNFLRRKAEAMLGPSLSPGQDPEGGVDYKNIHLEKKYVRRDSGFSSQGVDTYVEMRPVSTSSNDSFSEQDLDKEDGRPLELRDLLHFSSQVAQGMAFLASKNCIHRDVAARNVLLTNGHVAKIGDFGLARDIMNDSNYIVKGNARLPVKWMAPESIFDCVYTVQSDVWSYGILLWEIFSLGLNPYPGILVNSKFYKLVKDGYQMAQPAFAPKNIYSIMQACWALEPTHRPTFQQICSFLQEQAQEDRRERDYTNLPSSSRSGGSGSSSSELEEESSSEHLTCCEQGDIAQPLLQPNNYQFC
# method_description: HTRF biochemical assay, CSF-1R
# experimental_setup: Table 4
measurement_kind: IC50

# example entries with known answers
>>> measured_result("Cc1ccc(-c2noc([C@H]3C[C@@H]3F)n2)cc1NC(=O)c1cnc2ccc(Cl)cn12")
"≤ 50 nM"
>>> measured_result("Cc1ccc(-c2noc([C@H]3C[C@@H]3F)n2)cc1NC(=O)c1cnc2cc(OC(C)C)ccn12")
"≤ 50 nM"

Let's switch to this compound now.
# IC50 (compound: "COc1ccn2c(C(=O)Nc3cc(-c4noc(C5CC(F)(F)C5)n4)ccc3C)cnc2c1" ) is ≤ 50 nM

---

# method_description: Three time point assay for plasma, brain and testes distribution after oral dosing
# Type: in vivo, rat
# experimental_setup: rat, oral dosing, time point 2 h
# key: entry, value: Kp brain/plasma

>>> measured_result("Cc1ccc(-c2noc(C3(N)CC4(CC(F)(F)C4)C3)n2)cc1NC(=O)c1cnc2ccccn12")
0.21

# Kp brain/plasma (compound: "Cc1ccc(-c2noc([C@H]3C[C@@H]3F)n2)cc1NC(=O)c1cnc2ccc(C#N)cn12" ) is 0.53

# Kp brain/plasma (compound: Cc1ccc(-c2noc(CC(O)C(F)F)n2)cc1NC(=O)c1cnc2ccccn12 (stereo not shown) ) is 0.07

# Kp brain/plasma (compound: "Cc1ccc(-c2noc([C@H]3C[C@@H]3F)n2)cc1NC(=O)c1cnc2cc(OC(C)C)ccn12" ) is 0.14

---

# key: entry, value: Caco-2: Efflux Ratio
# System: Caco-2 cells
# method_description: Caco-2 permeability assay
# Assay type: in vitro ADME
# experimental_setup: Caco-2
Lab note: record the figure alone, no unit after it.

# example entries with known answers
>>> measured_result("Cc1ccc(-c2noc(C3CCC3F)n2)cc1NC(=O)c1cnc2ccccn12 (racemic)")
0.85
>>> measured_result("Cc1ccc(-c2noc(CC(O)C(F)F)n2)cc1NC(=O)c1cnc2ccccn12 (stereo not shown)")
4.4
>>> measured_result("Cc1ccc(-c2noc(C3(N)CC4(CC(F)(F)C4)C3)n2)cc1NC(=O)c1cnc2ccccn12")
1.79
>>> measured_result("Cc1ccc(-c2noc([C@@H](C)O)n2)cc1NC(=O)c1cnc2ccccn12")
3.35
>>> measured_result("Cc1ccc(-c2noc(CCO)n2)cc1NC(=O)c1cnc2ccccn12")
3.66
>>> measured_result("Cc1ccc(-c2noc(C3CCC(F)C3)n2)cc1NC(=O)c1cnc2ccccn12 (racemic)")
0.83
>>> measured_result("Cc1ccc(-c2noc([C@H]3CCC(=O)N3)n2)cc1NC(=O)c1cnc2ccccn12 (racemic)")
102
>>> measured_result("Cc1nc(-c2ccc(C)c(NC(=O)c3cnc4ccccn34)c2)no1")
0.36
>>> measured_result("CCCS(=O)(=O)N1CC(c2nc(-c3ccc(Cl)c(NC(=O)c4cnc5ccccn45)c3)no2)C1")
0.25
>>> measured_result("Cc1ccc(-c2noc(CC(C)O)n2)cc1NC(=O)c1cnc2ccccn12 (racemic)")
2.55

# Caco-2: Efflux Ratio (compound: "O=C(Nc1cc(-c2noc([C@H]3C[C@@H]3F)n2)ccc1Cl)c1cnc2ccccn12" ) is 0.56

# Caco-2: Efflux Ratio (compound: Cc1ccc(-c2noc(C3CC(OCCF)C3)n2)cc1NC(=O)c1cnc2ccccn12 (stereo not shown) ) is 0.77

# Caco-2: Efflux Ratio (compound: "COC(=O)N1CC(c2nc(-c3ccc(Cl)c(NC(=O)c4cnc5ccccn45)c3)no2)C1" ) is 0.56

# Caco-2: Efflux Ratio (compound: Cc1ccc(-c2noc(C(C)O)n2)cc1NC(=O)c1cnc2ccccn12 (racemic) ) is 3.09

# Caco-2: Efflux Ratio (compound: Cc1ccc(-c2noc(C3CC(C)(F)C3)n2)cc1NC(=O)c1cnc2ccccn12 (stereo not shown) ) is 0.77

# Caco-2: Efflux Ratio (compound: "Cc1ccc(-c2noc(C3COC3)n2)cc1NC(=O)c1cnc2ccccn12" ) is 1.42

---

# key: entry, value: pIC50
# target_of_assay: wtKIT (Homo sapiens, UniProt P10721)
# Construct: 1888289AM in the reaction mixtures
# Sequence (P10721 26-976): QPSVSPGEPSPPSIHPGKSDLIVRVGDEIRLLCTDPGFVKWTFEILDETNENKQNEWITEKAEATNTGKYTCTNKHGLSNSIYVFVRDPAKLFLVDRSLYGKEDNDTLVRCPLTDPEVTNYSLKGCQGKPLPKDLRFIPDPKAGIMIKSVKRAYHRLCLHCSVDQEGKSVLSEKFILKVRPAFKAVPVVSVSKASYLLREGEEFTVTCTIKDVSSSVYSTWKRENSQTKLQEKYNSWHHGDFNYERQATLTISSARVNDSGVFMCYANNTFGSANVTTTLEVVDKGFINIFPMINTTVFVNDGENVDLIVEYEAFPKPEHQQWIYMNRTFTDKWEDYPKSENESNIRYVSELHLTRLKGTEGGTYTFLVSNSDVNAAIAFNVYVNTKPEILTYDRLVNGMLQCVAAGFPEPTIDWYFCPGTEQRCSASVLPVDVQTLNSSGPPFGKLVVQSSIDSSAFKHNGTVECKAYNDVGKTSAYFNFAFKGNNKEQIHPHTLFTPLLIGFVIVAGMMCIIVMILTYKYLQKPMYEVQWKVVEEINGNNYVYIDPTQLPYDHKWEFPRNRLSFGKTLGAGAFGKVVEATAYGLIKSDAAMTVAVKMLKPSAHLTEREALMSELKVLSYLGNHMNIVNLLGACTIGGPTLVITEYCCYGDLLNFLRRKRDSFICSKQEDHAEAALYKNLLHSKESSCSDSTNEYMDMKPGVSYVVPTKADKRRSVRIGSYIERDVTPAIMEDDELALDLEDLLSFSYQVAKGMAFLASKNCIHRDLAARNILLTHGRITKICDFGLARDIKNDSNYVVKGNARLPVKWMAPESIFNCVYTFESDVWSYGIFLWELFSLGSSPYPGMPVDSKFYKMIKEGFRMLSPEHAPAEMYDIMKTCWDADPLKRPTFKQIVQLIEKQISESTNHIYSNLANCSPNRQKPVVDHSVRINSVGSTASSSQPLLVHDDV
# method_description: HTRF biochemical assay, wtKIT (phosphorylation of a peptide substrate)
# experimental_setup: Table 4
pIC50: −log10 of the molar value.

# example entries with known answers
>>> measured_result("Cc1ccc(-c2noc(C[C@@H](C)O)n2)cc1NC(=O)c1cnn2ccccc12 [Compound I-81]")
"6.30 to 7.30"
>>> measured_result("Cc1ccn2c(C(=O)Nc3cc(-c4noc(CC(=O)CF)n4)ccc3C)cnc2c1 [Compound I-589]")
"5.30 to 6.30"
>>> measured_result("COCC(O)Cc1nc(-c2ccc(C)c(NC(=O)c3cnc4ccccn34)c2)no1 (stereo not shown) [Compound I-528]")
"6.30 to 7.30"
>>> measured_result("Cc1ccc(-c2noc([C@@H]3CC(F)(F)CN3)n2)cc1NC(=O)c1cnc2cc(COCCO)ccn12 [Compound I-111]")
"≥ 7.30"
>>> measured_result("Cc1nc(-c2ccc(C)c(NC(=O)c3cnc4cc(OC5CCOC5)ccn34)c2)no1 (single isomer, unassigned) [Compound I-748]")
"6.30 to 7.30"

# pIC50 (compound: COC(=O)N1CC(c2nc(-c3ccc(C)c(NC(=O)c4cnc5cc(O[C@@H](C)CO)ccn45)c3)no2)C1 (single isomer, unassigned) [Compound I-217] ) is ≥ 7.30

# pIC50 (compound: Cc1ccc(-c2noc([C@H]3C[C@@H]3F)n2)cc1NC(=O)c1cnc2cc([C@H]3C[C@@H]3CO)ccn12 [Compound I-480] ) is ≥ 7.30

---

# target_of_assay: wtKIT (Homo sapiens, UniProt P10721)
# Construct: 1888289AM in the reaction mixtures
# method_description: HTRF biochemical assay, wtKIT (phosphorylation of a peptide substrate)
# experimental_setup: Table 4
measurement_kind: IC50

# example entries with known answers
>>> measured_result("Cc1nc(-c2ccc(C)c(NC(=O)c3cnc4cc(-c5csc(CO)n5)ccn34)c2)no1")
"≤ 50 nM"
>>> measured_result("Cc1nc(-c2ccc(C)c(NC(=O)c3cnc4ccccn34)c2)no1 [Compound I-360]")
"≤ 50 nM"
>>> measured_result("Cc1ccc(-c2ncon2)cc1NC(=O)c1cnc2cc(-c3csc(CO)n3)ccn12")
"≤ 50 nM"
>>> measured_result("Cc1ccc(-c2noc([C@H]3C[C@@H]3F)n2)cc1NC(=O)c1cnc2cc(C(C)(C)O)ccn12")
"≤ 50 nM"
>>> measured_result("COc1ccn2c(C(=O)Nc3cc(-c4noc(CCC(C)(C)O)n4)ccc3C)cnc2c1")
"≤ 50 nM"

# IC50 (molecule: Cc1ccc(-c2noc([C@H]3C[C@@H]3F)n2)cc1NC(=O)c1cnc2cc3c(cn12)COC3C (single isomer, unassigned) [Compound I-471] ) is ≤ 50 nM

# IC50 (molecule: "Cc1ccn2c(C(=O)Nc3cc(-c4noc(-c5cccnc5)n4)ccc3C)cnc2c1" ) is 50 to 500 nM

# IC50 (molecule: "CC[C@@H](O)Cc1nc(-c2ccc(C)c(NC(=O)c3cnc4cc(Cl)ccn34)c2)no1" ) is ≤ 50 nM

# IC50 (molecule: "COc1ccn2c(C(=O)Nc3cc(-c4noc(Cc5ccc(C)cc5)n4)ccc3C)cnc2c1" ) is ≤ 50 nM

# IC50 (molecule: "O=C(Nc1cc(-c2noc([C@@H]3CC(F)(F)CN3)n2)ccc1Cl)c1cnc2ccccn12" ) is 50 to 500 nM

# IC50 (molecule: COc1ccn2c(C(=O)Nc3cc(-c4noc(C(C)O)n4)ccc3C)cnc2c1 (stereo not drawn) ) is 50 to 500 nM

# IC50 (molecule: "COC(=O)N1CC(c2nc(-c3ccc(C)c(NC(=O)c4cnc5cc(OC[C@H](C)O)ccn45)c3)no2)C1" ) is ≤ 50 nM

# IC50 (molecule: "Cc1ccn2c(C(=O)Nc3cc(-c4noc(-c5ccccc5)n4)ccc3C)cnc2c1" ) is ≤ 50 nM

# IC50 (molecule: "Cc1ccc(-c2nc(-c3ccc(C)c(NC(=O)c4cnc5cc(C)ccn45)c3)no2)nc1" ) is 50 to 500 nM

# IC50 (molecule: CNC(C)COCc1ccn2c(C(=O)Nc3cc(-c4noc(CC(O)C(F)F)n4)ccc3C)cnc2c1 (stereo not drawn) [Compound I-598] ) is 50 to 500 nM

---

# target_of_assay: PDGFRα (Homo sapiens, UniProt P16234)
# Construct: purchased Millipore 14-467 (lot 26321_ACTI)
# Sequence (P16234 24-1089): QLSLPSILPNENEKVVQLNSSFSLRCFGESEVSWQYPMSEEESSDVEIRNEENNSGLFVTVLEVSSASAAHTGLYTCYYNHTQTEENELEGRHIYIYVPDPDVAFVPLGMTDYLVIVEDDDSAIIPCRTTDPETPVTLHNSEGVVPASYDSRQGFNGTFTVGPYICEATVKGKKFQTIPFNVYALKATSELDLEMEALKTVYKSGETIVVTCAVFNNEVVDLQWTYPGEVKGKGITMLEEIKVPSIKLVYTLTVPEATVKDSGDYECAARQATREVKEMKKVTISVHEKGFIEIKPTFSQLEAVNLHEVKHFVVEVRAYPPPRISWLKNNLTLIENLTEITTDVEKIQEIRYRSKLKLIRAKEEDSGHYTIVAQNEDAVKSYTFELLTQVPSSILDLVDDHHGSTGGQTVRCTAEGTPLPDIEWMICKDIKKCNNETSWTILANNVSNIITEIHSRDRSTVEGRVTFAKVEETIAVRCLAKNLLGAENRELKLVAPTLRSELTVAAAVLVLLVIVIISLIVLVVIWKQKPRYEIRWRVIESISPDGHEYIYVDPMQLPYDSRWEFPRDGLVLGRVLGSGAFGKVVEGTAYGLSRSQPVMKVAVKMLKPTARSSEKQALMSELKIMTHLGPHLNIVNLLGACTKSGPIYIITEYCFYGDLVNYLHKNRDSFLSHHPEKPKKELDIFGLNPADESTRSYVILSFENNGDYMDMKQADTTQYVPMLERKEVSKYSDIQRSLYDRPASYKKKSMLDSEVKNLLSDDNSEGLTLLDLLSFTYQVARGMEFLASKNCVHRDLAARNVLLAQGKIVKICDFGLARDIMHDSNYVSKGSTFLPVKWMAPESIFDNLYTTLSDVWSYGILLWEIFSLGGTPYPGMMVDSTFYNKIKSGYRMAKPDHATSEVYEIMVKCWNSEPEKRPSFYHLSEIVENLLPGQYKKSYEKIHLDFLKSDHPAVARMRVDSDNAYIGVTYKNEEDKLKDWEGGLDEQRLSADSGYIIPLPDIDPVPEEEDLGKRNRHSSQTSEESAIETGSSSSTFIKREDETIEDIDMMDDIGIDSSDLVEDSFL
# method_description: HTRF biochemical assay, PDGFRα
# experimental_setup: Table 4, read-out: PDFGRα Biochemical IC50 avg
pIC50: −log10 of the molar value.
measurement_kind: pIC50

# example entries with known answers
>>> measured_result("COCCS(=O)(=O)N1CC[C@H]1c1nc(-c2ccc(C)c(NC(=O)c3cnc4ccccn34)c2)no1")
"5.30 to 6.30"
>>> measured_result("Cc1ccc(-c2noc([C@H]3C[C@@H]3F)n2)cc1NC(=O)c1cnc2ccc(OC(C)C)cn12")
"6.30 to 7.30"
>>> measured_result("CCOc1ccc2ncc(C(=O)Nc3cc(-c4noc([C@H]5C[C@@H]5F)n4)ccc3C)n2c1")
"6.30 to 7.30"

Let's switch to this compound now.
# pIC50 (compound: "Cc1ccc(-c2noc([C@H]3C[C@@H]3F)n2)cc1NC(=O)c1cnc2cc(OC(F)(F)F)ccn12" ) is 4.52 to 5.30

These data points were gathered from patent US20240254119A1.
